- target-of-assay: COX2 (Homo sapiens, UniProt P35354)
- Sequence (P35354 18-604): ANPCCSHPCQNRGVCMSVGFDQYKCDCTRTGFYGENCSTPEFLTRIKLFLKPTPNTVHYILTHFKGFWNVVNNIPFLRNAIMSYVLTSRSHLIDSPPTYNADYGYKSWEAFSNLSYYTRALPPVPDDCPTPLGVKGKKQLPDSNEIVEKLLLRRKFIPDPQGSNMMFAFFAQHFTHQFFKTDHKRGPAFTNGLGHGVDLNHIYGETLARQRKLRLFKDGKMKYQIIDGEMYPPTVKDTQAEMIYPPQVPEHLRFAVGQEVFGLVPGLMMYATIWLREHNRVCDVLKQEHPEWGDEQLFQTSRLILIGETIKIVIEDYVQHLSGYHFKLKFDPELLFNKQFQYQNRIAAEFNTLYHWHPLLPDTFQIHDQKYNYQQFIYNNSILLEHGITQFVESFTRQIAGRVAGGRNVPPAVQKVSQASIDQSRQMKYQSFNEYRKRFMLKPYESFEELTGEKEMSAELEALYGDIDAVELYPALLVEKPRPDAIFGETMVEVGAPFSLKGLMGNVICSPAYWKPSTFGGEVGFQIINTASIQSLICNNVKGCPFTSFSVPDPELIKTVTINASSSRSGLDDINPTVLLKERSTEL
pIC50: −log10 of the molar value.
reported-property: pIC50

1. Cn1c(=O)c2c(c3cc(Nc4ccnc(F)c4Cl)ccc31)N[C@@H](C1CC1)C(F)(F)CO2 : < 5.00

----------
- target-of-assay: MAOA (Homo sapiens, UniProt P21397)
- Sequence (P21397 whole entry, species assumed): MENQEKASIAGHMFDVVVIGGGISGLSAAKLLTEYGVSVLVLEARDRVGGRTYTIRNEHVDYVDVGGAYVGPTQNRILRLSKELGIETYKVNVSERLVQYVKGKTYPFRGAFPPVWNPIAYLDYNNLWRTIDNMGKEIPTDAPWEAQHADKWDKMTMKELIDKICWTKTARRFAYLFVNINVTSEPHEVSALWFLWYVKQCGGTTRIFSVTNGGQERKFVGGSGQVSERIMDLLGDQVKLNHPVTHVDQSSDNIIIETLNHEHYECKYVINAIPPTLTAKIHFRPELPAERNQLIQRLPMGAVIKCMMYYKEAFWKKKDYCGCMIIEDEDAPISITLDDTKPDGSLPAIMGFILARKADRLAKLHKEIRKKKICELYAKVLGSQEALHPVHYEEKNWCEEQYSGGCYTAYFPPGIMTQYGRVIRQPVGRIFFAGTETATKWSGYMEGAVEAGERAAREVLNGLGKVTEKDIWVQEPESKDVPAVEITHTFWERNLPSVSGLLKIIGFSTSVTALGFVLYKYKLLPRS
pIC50: −log10 of the molar value.
reported-property: pIC50

1. Cn1c(=O)c2c(c3cc(Nc4ccnc(F)c4Cl)ccc31)N[C@@H](C1CC1)C(F)(F)CO2 : < 5.00

----------
- target-of-assay: COX1 (Homo sapiens, UniProt P23219)
- Sequence (P23219 24-599): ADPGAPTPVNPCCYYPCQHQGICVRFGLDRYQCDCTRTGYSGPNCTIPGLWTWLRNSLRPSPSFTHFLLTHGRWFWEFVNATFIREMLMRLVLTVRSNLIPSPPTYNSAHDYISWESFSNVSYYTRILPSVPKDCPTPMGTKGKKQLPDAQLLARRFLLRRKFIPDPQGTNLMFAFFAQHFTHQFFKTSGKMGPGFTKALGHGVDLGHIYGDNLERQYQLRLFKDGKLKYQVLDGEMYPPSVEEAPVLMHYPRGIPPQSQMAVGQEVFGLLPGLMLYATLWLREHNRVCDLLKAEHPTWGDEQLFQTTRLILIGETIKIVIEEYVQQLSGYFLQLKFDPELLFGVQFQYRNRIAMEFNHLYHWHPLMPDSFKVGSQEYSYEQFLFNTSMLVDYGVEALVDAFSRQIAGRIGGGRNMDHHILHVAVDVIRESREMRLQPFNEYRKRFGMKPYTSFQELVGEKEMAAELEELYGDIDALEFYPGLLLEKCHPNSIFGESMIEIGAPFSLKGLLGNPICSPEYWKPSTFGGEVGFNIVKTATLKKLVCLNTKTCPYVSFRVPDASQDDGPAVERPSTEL
pIC50: −log10 of the molar value.
reported-property: pIC50

1. Cn1c(=O)c2c(c3cc(Nc4ccnc(F)c4Cl)ccc31)N[C@@H](C1CC1)C(F)(F)CO2 : 5.34

----------
- target-of-assay: DRD2S (Homo sapiens)
- Sequence (P14416 1-414 isoform P14416-2): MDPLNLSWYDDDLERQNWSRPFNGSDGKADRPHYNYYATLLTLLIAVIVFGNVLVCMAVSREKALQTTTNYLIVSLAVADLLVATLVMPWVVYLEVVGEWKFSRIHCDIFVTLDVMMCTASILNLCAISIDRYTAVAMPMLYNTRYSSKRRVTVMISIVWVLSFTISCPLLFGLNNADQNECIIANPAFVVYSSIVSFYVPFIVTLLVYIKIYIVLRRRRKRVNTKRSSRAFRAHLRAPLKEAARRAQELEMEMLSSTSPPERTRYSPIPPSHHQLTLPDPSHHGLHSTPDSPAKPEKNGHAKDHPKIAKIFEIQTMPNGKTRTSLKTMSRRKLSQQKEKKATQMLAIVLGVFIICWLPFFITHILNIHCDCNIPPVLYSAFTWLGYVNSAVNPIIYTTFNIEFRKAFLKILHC
- experiment-description: SAFETYscan cAMP DRD2S Agonist
pEC50: −log10 of the molar value.
reported-property: pEC50

1) Cn1c(=O)c2c(c3cc(Nc4ccnc(F)c4Cl)ccc31)N[C@@H](C1CC1)C(F)(F)CO2 [compound 17] : 5.46

----------
- target-of-assay: LCK (Homo sapiens, UniProt P06239)
- Sequence (P06239 whole entry): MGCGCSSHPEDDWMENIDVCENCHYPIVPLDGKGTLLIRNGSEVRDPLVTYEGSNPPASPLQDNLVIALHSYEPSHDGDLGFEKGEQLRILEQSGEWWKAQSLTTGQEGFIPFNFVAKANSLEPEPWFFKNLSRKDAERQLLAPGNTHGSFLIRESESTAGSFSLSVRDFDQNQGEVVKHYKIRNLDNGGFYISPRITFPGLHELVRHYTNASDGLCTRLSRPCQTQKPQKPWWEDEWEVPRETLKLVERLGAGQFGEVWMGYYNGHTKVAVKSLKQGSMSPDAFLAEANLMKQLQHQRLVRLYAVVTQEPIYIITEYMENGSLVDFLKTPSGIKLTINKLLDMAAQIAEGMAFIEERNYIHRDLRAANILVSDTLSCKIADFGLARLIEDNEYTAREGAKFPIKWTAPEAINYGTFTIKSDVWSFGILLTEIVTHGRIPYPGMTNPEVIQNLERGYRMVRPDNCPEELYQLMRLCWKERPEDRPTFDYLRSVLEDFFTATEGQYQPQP
reported-property: IC50

1. Cn1c(=O)c2c(c3cc(Nc4ccnc(F)c4Cl)ccc31)N[C@@H](C1CC1)C(F)(F)CO2 [compound 17] : > 10 µM

----------
- target-of-assay: OPRK1 (Homo sapiens, UniProt P41145)
- Sequence (P41145 whole entry): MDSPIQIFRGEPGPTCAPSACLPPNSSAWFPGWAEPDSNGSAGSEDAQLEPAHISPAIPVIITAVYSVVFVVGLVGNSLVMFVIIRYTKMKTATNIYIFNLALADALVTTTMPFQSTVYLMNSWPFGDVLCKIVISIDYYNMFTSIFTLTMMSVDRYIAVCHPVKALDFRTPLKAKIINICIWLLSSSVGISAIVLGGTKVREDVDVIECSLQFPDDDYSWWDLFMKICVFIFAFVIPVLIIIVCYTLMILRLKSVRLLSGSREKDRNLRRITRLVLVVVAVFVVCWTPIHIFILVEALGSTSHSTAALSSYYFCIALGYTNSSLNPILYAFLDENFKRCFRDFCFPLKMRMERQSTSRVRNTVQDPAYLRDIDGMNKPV
- experiment-description: SAFETYscan cAMP OPRK1 Agonist
- Format: cell-based
pEC50: −log10 of the molar value.
reported-property: pEC50

1. Cn1c(=O)c2c(c3cc(Nc4ccnc(F)c4Cl)ccc31)N[C@@H](C1CC1)C(F)(F)CO2 : < 5.00

----------
- target-of-assay: CAV1.2 (Homo sapiens, UniProt Q13936)
- experiment-description: cell-based
reported-property: IC50

1. Cn1c(=O)c2c(c3cc(Nc4ccnc(F)c4Cl)ccc31)N[C@@H](C1CC1)C(F)(F)CO2 [compound 17] : > 10 µM

----------
- target-of-assay: ROCK1 (Homo sapiens, UniProt Q13464)
- Sequence (Q13464 whole entry): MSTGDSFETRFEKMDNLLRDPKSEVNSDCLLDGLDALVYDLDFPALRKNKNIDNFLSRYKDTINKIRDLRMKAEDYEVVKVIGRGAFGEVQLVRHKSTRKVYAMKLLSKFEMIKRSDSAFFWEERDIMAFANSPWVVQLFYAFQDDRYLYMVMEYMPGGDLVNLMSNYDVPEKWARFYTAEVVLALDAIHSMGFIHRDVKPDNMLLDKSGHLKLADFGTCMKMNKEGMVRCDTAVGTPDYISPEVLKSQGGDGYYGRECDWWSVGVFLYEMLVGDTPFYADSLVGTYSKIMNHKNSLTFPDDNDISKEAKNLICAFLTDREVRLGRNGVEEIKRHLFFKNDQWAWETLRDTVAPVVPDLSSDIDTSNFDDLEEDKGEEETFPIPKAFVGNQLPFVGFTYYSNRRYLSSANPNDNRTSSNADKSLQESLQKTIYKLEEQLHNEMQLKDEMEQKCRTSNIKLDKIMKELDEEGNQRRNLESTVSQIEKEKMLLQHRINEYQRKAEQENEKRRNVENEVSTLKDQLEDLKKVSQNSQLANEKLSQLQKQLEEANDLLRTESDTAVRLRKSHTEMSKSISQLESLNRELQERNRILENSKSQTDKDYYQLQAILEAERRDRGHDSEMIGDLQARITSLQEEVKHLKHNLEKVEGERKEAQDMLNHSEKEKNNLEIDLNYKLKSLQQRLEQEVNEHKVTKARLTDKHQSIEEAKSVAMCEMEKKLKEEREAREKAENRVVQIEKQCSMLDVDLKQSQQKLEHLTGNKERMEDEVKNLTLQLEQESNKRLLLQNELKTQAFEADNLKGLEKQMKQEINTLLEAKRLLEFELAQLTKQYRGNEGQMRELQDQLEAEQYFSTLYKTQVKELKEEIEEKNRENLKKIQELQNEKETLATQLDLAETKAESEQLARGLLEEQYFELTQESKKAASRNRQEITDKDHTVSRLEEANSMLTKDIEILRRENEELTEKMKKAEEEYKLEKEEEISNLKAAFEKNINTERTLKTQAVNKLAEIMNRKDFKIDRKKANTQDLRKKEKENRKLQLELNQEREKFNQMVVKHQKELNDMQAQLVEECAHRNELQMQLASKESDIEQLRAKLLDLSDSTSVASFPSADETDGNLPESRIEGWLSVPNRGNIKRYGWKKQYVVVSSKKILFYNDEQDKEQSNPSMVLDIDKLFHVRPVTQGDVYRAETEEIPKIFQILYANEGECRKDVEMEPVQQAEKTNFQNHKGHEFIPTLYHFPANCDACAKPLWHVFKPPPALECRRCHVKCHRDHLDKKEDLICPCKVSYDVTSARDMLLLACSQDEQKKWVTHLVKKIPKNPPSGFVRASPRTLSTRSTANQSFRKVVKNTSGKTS
pIC50: −log10 of the molar value.
reported-property: pIC50

1. Cn1c(=O)c2c(c3cc(Nc4ccnc(F)c4Cl)ccc31)N[C@@H](C1CC1)C(F)(F)CO2 [compound 17] : < 5.00

----------
- target-of-assay: HTR2B (Homo sapiens, UniProt P41595)
- experiment-description: SAFETYscan Calcium Flux HTR2B Agonist
pEC50: −log10 of the molar value.
reported-property: pEC50

1) Cn1c(=O)c2c(c3cc(Nc4ccnc(F)c4Cl)ccc31)N[C@@H](C1CC1)C(F)(F)CO2 : < 5.00

----------
- target-of-assay: HTR1A (Homo sapiens, UniProt P08908)
- Sequence (P08908 whole entry): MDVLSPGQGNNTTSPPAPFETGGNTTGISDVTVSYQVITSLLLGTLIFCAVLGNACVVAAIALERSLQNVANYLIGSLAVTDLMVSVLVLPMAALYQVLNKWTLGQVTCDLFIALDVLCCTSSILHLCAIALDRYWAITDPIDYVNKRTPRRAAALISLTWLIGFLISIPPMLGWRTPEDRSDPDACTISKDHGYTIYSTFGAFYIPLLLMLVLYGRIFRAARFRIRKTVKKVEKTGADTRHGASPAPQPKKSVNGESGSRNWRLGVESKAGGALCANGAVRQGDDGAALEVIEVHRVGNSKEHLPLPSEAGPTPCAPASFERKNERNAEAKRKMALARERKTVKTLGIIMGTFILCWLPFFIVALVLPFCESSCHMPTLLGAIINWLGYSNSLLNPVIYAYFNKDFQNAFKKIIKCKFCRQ
- experiment-description: SAFETYscan cAMP HTR1A Antagonist
pIC50: −log10 of the molar value.
reported-property: pIC50

1) Cn1c(=O)c2c(c3cc(Nc4ccnc(F)c4Cl)ccc31)N[C@@H](C1CC1)C(F)(F)CO2 [compound 17] : < 5.00

----------
- target-of-assay: CNR2 (Homo sapiens, UniProt P34972)
- experiment-description: SAFETYscan cAMP CNR2 Antagonist
- Format: cell-based
pIC50: −log10 of the molar value.
reported-property: pIC50

1) Cn1c(=O)c2c(c3cc(Nc4ccnc(F)c4Cl)ccc31)N[C@@H](C1CC1)C(F)(F)CO2 [compound 17] : < 5.00

----------
- target-of-assay: GABAA (Homo sapiens, UniProt P14867+P18507+P47870)
- experiment-description: SAFETYscan Ion Channel GABAA Blocker
reported-property: IC50

1) Cn1c(=O)c2c(c3cc(Nc4ccnc(F)c4Cl)ccc31)N[C@@H](C1CC1)C(F)(F)CO2 [compound 17] : > 10 µM

----------
- target-of-assay: OPRK1 (Homo sapiens)
- experiment-description: SAFETYscan cAMP OPRK1 Antagonist
pIC50: −log10 of the molar value.
reported-property: pIC50

1. Cn1c(=O)c2c(c3cc(Nc4ccnc(F)c4Cl)ccc31)N[C@@H](C1CC1)C(F)(F)CO2 [compound 17] : < 5.00

----------
- target-of-assay: BCL6-SMRT (NCOR2) corepressor protein-protein interaction (Homo sapiens)
- Construct: DNA encoding full length BCL6 and SMRT; expressed in transfected cells; host or cells: HEK293T
- experiment-description: NanoBRET cellular assay (HEK293T)
- Assay type: cell-based
- condition-info: HEK-293T, Table S2; read-out: BCL6 NanoBRET IC90 individual replicates
reported-property: IC90 (nM)

1. Cn1c(=O)c2c(c3cc(Nc4nc(N5C6CCC5COC6)ncc4Cl)ccc31)N[C@@H](C1CC1)C(F)(F)CO2 : 142
2. Cn1c(=O)c2c(c3cc(Nc4nc(N5CC(F)C5)ncc4Cl)ccc31)N[C@@H](C1CC1)C(F)(F)CO2 : 444
3. Cn1c(=O)c2c(c3cc(Nc4nc(N5CC(C#N)C5)ncc4Cl)ccc31)N[C@@H](C1CC1)C(F)(F)CO2 : 385
4. Cn1c(=O)c2c(c3cc(Nc4ccnc(Cl)c4Cl)ccc31)N[C@@H](C1CC1)C(F)(F)CO2 : 796

----------
- target-of-assay: ADRB1 (Homo sapiens)
- Sequence (P08588 whole entry): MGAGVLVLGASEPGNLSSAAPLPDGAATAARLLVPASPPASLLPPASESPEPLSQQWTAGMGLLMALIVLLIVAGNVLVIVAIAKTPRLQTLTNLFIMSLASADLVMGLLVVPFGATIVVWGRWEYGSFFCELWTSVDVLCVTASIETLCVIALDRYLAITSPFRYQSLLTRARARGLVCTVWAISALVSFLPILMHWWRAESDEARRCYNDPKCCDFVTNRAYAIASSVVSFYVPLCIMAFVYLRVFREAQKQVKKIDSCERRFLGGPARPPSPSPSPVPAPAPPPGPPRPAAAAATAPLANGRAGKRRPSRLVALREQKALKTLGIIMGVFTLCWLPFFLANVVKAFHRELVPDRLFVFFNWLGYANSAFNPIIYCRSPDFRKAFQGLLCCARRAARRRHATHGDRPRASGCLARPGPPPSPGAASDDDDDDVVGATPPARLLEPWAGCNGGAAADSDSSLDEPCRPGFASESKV
- experiment-description: SAFETYscan cAMP ADRB1 Antagonist
- condition-info: read-out: RC50 (IC50)
reported-property: IC50 (nM)

1) Cn1c(=O)c2c(c3cc(Nc4ccnc(F)c4Cl)ccc31)N[C@@H](C1CC1)C(F)(F)CO2 : 1600

----------
# pIC50 per entry
- target-of-assay: BCL6-SMRT (NCOR2) corepressor protein-protein interaction (Homo sapiens)
- Construct: DNA encoding full length BCL6 and SMRT; expressed in transfected cells; host or cells: HEK293T
- experiment-description: NanoBRET cellular assay (HEK293T)
- Format: cell-based
- condition-info: geometric mean of at least three replicates; read-out: NanoBRET IC50
pIC50: −log10 of the molar value.
reported-property: pIC50

1. Cn1c(=O)c2c(c3cc(Nc4ccnc(Cl)c4Cl)ccc31)N[C@@H](C1CC1)C(F)(F)CO2 : 7.17
2. Cn1c(=O)c2c(c3cc(Nc4ccnc(F)c4Cl)ccc31)N[C@@H](C1CC1)C(F)(F)CO2 : 7.66
3. Cn1c(=O)c2c(c3cc(Nc4nc(N5CC(F)C5)ncc4Cl)ccc31)N[C@@H](C1CC1)C(F)(F)CO2 : 7.40
4. Cn1c(=O)c2c(c3cc(Nc4nc(N5CC6CCC(C5)O6)ncc4Cl)ccc31)N[C@@H](C1CC1)C(F)(F)CO2 : 7.90
5. Cn1c(=O)c2c(c3cc(Nc4nc(N5CC(F)(F)C5)ncc4Cl)ccc31)N[C@@H](C1CC1)C(F)(F)CO2 : 7.51
6. Cn1c(=O)c2c(c3cc(Nc4ccnc(Cl)c4F)ccc31)N[C@@H](C1CC1)C(F)(F)CO2 : 6.97
7. Cn1c(=O)c2c(c3cc(Nc4nc(N5CCC5)ncc4Cl)ccc31)N[C@@H](C1CC1)C(F)(F)CO2 : 6.83
8. COC1CN(c2ncc(Cl)c(Nc3ccc4c(c3)c3c(c(=O)n4C)OCC(F)(F)[C@H](C4CC4)N3)n2)C1 : 7.42
9. Cn1c(=O)c2c(c3cc(Nc4nc(N5CC(C#N)C5)ncc4Cl)ccc31)N[C@@H](C1CC1)C(F)(F)CO2 : 7.26

----------
- target-of-assay: UniProt Q14524
- experiment-description: SAFETYscan Ion Channel NAV1.5 Blocker
- Assay type: cell-based
- condition-info: NAV1.5, Ion Channel, Blocker; read-out: Max Response
reported-property: Emax

1) Cn1c(=O)c2c(c3cc(Nc4ccnc(F)c4Cl)ccc31)N[C@@H](C1CC1)C(F)(F)CO2 : 2.06%
